Cited source: paper PMC6477676

- measured-on: T1, mStau2 dsRBD1-2 E99A (Mus musculus, UniProt Q8CJ67 8-181, E99A)
- T1 sequence: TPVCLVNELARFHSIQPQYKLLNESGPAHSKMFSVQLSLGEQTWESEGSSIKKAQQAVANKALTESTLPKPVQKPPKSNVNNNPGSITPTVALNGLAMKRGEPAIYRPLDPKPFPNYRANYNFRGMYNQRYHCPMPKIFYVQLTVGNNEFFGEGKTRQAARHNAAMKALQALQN
- assay-name: SPR; Hill n 1.5; SPR: HBS-EP (10 mM HEPES pH 7.4, 150 mM NaCl, 3 mM EDTA, 0.005% P20); EMSA: 5 nM RNA, protein buffer (40 mM Bis-Tris pH 7, 150 mM NaCl, 2 mM DTT presumed), 4% glycerol, 30 ug/mL yeast tRNA, RT; NMR: 150 mM NaCl, 20 mM Na phosphate pH 7.0, 5 mM DTT, 298 K
- particulars: protein: recombinant; label: 5' 32P (EMSA); biotin (SPR); hairpin, 18 bp stem
property-label: Kd (nM)
Hi! Could you send only the number? It should be in nM, unit omitted.

Request the reported Kd associated with GGUAUAUACAUGCACAUGCAAUUUGUGUAUGUGUAUGUAUAUA (structured_RNA) [SRS2+5] 635
